Target: T1, hu-CD74 antigen (R&D SYSTEMS catalog #3590-CD-050) (human, UniProt P04233-2 73-232, limits assumed)
T1 construct: Bought antigen; also called rhCD74; human CD74
T1 sequence (looked up): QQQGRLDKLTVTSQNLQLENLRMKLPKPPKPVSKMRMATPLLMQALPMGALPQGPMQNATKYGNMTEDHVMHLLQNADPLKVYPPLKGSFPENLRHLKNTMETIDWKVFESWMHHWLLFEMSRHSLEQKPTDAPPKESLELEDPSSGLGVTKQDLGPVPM
Assay: SPR (Biacore T200), captured on anti-human Fc, rhCD74 analyte
Endpoint name: pKd
One number for each entry, as −log10 of the molar value.

Supply recorded pKd for 1251-B08 heavy chain paired with VL SEQ ID NO: 272 (antibody, V domains shown) VH: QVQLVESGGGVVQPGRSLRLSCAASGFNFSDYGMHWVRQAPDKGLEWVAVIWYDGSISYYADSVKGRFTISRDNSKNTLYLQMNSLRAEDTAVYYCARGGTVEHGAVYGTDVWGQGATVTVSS VL: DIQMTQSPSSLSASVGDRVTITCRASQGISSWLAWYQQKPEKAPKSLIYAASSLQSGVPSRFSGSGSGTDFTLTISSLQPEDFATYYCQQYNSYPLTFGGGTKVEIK here.
9.65
